assay: Tmax in fasted Sprague-Dawley rat at 5 mg/kg, po; format: ADME, organism-based; set-up: dose 5 mg/kg, route oral; conditions: in vivo
Readout: Tmax (h)
Answers are plain numbers, in h.

response.value for "FC(F)(F)c1ccc(Nc2ncnc3sc(Nc4c(Cl)cccc4Cl)nc23)cc1" (field: Tmax) = 2

* * *

target: Transient receptor potential cation channel subfamily V member 1 (Rattus norvegicus); assay: Antagonist activity at rat TRPV1 expressed in HEK293 cells assessed as inhibition of capsaicin-induced calcium flux; assay type: functional, cell-based
Sequence (O35433 whole entry): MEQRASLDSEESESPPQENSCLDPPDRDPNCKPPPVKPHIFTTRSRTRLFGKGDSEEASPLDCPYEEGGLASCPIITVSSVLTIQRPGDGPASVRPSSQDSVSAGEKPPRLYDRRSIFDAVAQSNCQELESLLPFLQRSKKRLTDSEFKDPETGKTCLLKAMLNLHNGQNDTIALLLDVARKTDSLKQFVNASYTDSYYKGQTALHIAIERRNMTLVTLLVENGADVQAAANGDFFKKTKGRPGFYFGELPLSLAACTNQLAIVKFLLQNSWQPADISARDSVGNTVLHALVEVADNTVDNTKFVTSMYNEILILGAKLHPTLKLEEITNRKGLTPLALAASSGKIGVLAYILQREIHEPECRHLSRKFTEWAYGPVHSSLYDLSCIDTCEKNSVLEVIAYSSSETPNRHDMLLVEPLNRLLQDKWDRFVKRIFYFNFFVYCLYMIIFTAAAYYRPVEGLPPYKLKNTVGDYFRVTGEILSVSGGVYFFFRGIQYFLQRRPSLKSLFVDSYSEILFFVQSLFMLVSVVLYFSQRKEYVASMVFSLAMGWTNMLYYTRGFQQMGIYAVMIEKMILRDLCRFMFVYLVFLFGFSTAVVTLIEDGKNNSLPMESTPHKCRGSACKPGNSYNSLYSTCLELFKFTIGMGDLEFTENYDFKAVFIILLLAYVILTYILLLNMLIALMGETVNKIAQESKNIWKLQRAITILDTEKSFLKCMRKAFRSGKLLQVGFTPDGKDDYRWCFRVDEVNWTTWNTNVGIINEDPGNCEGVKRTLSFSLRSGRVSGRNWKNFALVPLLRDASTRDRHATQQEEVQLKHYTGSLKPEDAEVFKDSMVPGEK
Readout: pIC50
Give bare numbers, as −log10 of the molar value.

Some compounds with recorded pIC50:
FC(F)(F)c1ccc(Nc2ncnc3sc(Nc4ccccc4Cl)nc23)cc1; 7.49
Cc1ccccc1Nc1nc2c(Nc3ccc(C(F)(F)F)cc3)ncnc2s1; 7.85
CN(c1nc2c(Nc3ccc(C(F)(F)F)cc3)ncnc2s1)c1c(Cl)cccc1Cl; 6.27

# ---- query compound ----
response.value for "FC(F)(F)c1ccc(Nc2ncnc3nc(Nc4c(Cl)cccc4Cl)sc23)cc1" (field: pIC50) = 6.06

* * *

What IC50 was measured for each of the following?
molecular target: Transient receptor potential cation channel subfamily V member 1 (Rattus norvegicus); experiment: Antagonist activity at rat TRPV1 expressed in HEK293 cells assessed as inhibition of capsaicin-induced calcium flux; format: functional, cell-based
Numbers only, in nM.

Some compounds with recorded IC50:
Clc1cccc(Cl)c1Nc1nc2c(Nc3ccccc3)ncnc2s1; 170
CN(C)c1nc(Nc2ccc(C(F)(F)F)cc2)c2nc(Nc3c(Cl)cccc3Cl)sc2n1; 43
CCN(CC)c1nc(Nc2ccc(C(F)(F)F)cc2)c2nc(Nc3c(Cl)cccc3Cl)sc2n1; 34
FC(F)(F)c1ccc(Nc2nc(NCC3CC3)nc3sc(Nc4c(Cl)cccc4Cl)nc23)cc1; 3

# map each compound to its IC50
1. O=S(=O)(c1ccc(Nc2ncnc3sc(Nc4c(Cl)cccc4Cl)nc23)cc1)N1CCCC1
2. Cc1ccc(Nc2ncnc3sc(Nc4c(Cl)cccc4Cl)nc23)cc1

Response:
0.5
32

# map each compound to its IC50
1. FC(F)(F)c1ccc(Nc2nc(NCCN3CCOCC3)nc3sc(Nc4c(Cl)cccc4Cl)nc23)cc1
2. FC(F)(F)c1ccc(Nc2nc(-c3ccccc3)nc3sc(Nc4c(Cl)cccc4Cl)nc23)cc1
3. FC(F)(F)c1ccc(Nc2nc(N3CCC3)nc3sc(Nc4c(Cl)cccc4Cl)nc23)cc1
4. FC(F)(F)c1ccc(Nc2nc(N3CCCC3)nc3sc(Nc4c(Cl)cccc4Cl)nc23)cc1

Response:
[11, 104, 25, 36]

* * *

What IC50 was measured for each of the following?
molecular target: Transient receptor potential cation channel subfamily V member 1 (Homo sapiens, UniProt Q8NER1); assay: Antagonist activity at human TRPV1 expressed in HEK293 cells assessed as inhibition of capsaicin-induced calcium flux; type: functional, cell-based
Sequence (Q8NER1 whole entry): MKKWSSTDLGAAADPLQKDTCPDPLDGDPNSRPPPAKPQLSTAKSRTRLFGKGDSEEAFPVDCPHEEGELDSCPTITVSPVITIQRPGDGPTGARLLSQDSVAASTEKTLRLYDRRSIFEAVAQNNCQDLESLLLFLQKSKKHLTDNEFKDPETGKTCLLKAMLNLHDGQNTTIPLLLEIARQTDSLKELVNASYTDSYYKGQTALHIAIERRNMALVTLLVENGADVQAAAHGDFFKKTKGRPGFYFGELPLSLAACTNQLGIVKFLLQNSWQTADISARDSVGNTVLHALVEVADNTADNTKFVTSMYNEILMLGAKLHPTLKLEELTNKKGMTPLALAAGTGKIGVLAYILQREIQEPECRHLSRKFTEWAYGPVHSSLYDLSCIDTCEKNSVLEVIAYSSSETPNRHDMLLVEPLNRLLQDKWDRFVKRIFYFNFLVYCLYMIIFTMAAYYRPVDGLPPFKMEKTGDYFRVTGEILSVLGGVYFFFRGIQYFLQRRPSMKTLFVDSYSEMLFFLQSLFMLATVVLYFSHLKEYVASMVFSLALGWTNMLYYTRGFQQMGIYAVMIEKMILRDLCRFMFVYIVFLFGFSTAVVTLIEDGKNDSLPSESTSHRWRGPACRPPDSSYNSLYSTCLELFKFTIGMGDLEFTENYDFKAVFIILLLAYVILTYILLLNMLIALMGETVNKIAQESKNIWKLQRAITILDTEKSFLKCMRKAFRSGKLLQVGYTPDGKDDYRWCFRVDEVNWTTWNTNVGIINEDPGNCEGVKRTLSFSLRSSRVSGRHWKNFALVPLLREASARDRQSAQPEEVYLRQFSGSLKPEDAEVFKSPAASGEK

Some compounds with recorded IC50:
FC(F)(F)c1ccc(Nc2ncnc3sc(Nc4ncccc4C(F)(F)F)nc23)cc1; > 5 µM
FC(F)(F)c1ccc(Nc2nc3c(Nc4ccc(C(F)(F)F)cc4)ncnc3s2)cc1; > 5 µM
FC(F)(F)c1ccc(Nc2nc(NCCN3CCOCC3)nc3sc(Nc4c(Cl)cccc4Cl)nc23)cc1; 0.039 µM
NC(=O)c1ccc(Nc2ncnc3sc(Nc4c(Cl)cccc4Cl)nc23)cc1; > 5 µM
CN(c1nc2c(Nc3ccc(C(F)(F)F)cc3)ncnc2s1)c1c(Cl)cccc1Cl; 0.502 µM
Cc1cccc(Cl)c1Nc1nc2c(Nc3ccc(C(F)(F)F)cc3)ncnc2s1; 0.009 µM
FC(F)(F)c1ccc(Nc2ncnc3c2CCN(c2ncccc2C(F)(F)F)C3)cc1; 0.015 µM
FC(F)(F)c1ccccc1Nc1ncnc2sc(Nc3c(Cl)cccc3Cl)nc12; > 5 µM

# map each compound to its IC50
1. FC(F)(F)c1ccc(Nc2ncnc3nc(Nc4c(Cl)cccc4Cl)sc23)cc1
2. FC(F)(F)c1cccc(Nc2ncnc3sc(Nc4c(Cl)cccc4Cl)nc23)c1
3. O=C(c1ccc(Nc2ncnc3sc(Nc4c(Cl)cccc4Cl)nc23)cc1)N1CCCC1
4. NS(=O)(=O)c1ccc(Nc2ncnc3sc(Nc4c(Cl)cccc4Cl)nc23)cc1
5. FC(F)(F)c1ccc(Nc2nc(NCC3CC3)nc3sc(Nc4c(Cl)cccc4Cl)nc23)cc1
6. CC(C)c1ccc(Nc2ncnc3sc(Nc4c(Cl)cccc4Cl)nc23)cc1
7. FC(F)(F)c1ccc(Sc2ncnc3sc(Nc4c(Cl)cccc4Cl)nc23)cc1

Response:
1: 0.68 µM; 2: 0.206 µM; 3: > 5 µM; 4: > 5 µM; 5: 0.003 µM; 6: 0.01 µM; 7: > 5 µM

# map each compound to its IC50
1. FC(F)(F)c1ccc(Nc2ncnc3sc(Nc4cccc(C(F)(F)F)c4)nc23)cc1
2. FC(F)(F)c1ccc(Nc2nc(N3CCC3)nc3sc(Nc4c(Cl)cccc4Cl)nc23)cc1
3. CC(C)(C)c1ccc(Oc2ncnc3sc(Nc4c(Cl)cccc4Cl)nc23)cc1
4. CN(c1ccc(C(F)(F)F)cc1)c1ncnc2sc(Nc3c(Cl)cccc3Cl)nc12
5. FC(F)(F)c1ccc(Nc2nc(N3CCNCC3)nc3sc(Nc4c(Cl)cccc4Cl)nc23)cc1
6. O=C(O)c1ccc(Nc2ncnc3sc(Nc4c(Cl)cccc4Cl)nc23)cc1

Response:
> 5 µM
0.059 µM
> 5 µM
> 5 µM
> 5 µM
> 5 µM

# map each compound to its IC50
1. FC(F)(F)c1ccc(Nc2ncnc3sc(Nc4ccccc4)nc23)cc1
2. FC(F)(F)c1ccc(Nc2cccc3sc(Nc4c(Cl)cccc4Cl)nc23)cc1

Response:
["> 5 µM", "> 5 µM"]

Data credit: ChEMBL document CHEMBL1139308
